# experiment: reversal of MRP1-mediated doxorubicin resistance, pilot screen, H69AR cells, doxorubicin co-treatment (AID 601)
# test-settings: H69AR cells, CellTiter-Glo, 72 h; compound alone cytotoxicity; at 10 µM
metric: viability (%)

1. CCC1CCCCN1CCCNC(=O)c1ccc(CS(=O)(=O)Cc2ccccc2F)o1 (stereo not drawn) :: 92.9
2. CCOC(=O)c1ccc2[nH]c3c(c2c1)CCCCC3=O :: 99.5
3. Cc1cc(C)nc(NS(=O)(=O)c2ccc(NC(=O)Cn3c(=O)oc4ccccc43)cc2)n1 :: 86.7
4. CC(C)CN(CC(C)C)C(=O)C12CCC(C)(C(=O)C1)C2(C)C (stereo not drawn) :: 96.8
5. CC(C)(C)c1ccc(C(=O)N2CCC(C(=O)NCc3ccncc3)CC2)cc1 :: 88.8
6. O=C1NC(=O)C2(CCC(C(=O)O)C2)N1 (stereo not drawn) :: 94.2
7. COc1ccccc1CNC(=O)Nc1cccs1 :: 72.1
8. O=C(CSc1n[nH]c(=O)[nH]c1=O)c1ccccc1 :: 101
9. c1ccc(Cn2nnnc2C(c2cccs2)N2CCSCC2)cc1 (stereo not drawn) :: 81.6
10. O=C(C1CCC(CNS(=O)(=O)c2cccc3cccnc23)CC1)N1CCCC1 (stereo not drawn) :: 99.9
11. CC(CN1c2ccccc2Sc2ccccc21)N(C)C (stereo not drawn) :: 92.2
12. CCN(C(=O)c1cccs1)c1nnc(-c2ccncc2)s1 :: 92.5
13. CC(C)(Oc1ccc(Cl)cc1)C(=O)NCc1ccncc1 :: 94.2
14. Cc1cccc(CC(=O)Nc2c3c(nn2-c2cccc(Cl)c2)CS(=O)C3)c1 (stereo not drawn) :: 85.2
15. COC(=O)Oc1c(Br)c(=O)oc2ccccc12 :: 83
16. COc1ccccc1C(=O)N1CCCC(c2nc(-c3cc(OC)c(OC)c(OC)c3)no2)C1 (stereo not drawn) :: 78.8
17. COC(=O)c1sc(S(=O)(=O)N2CCN(c3ccccc3)CC2)c(C(=O)OC)c1C :: 85.6
18. CCCCCC(=O)O[C@]1(C(C)=O)CC[C@H]2[C@@H]3CCC4=CC(=O)CC[C@]4(C)[C@H]3CC[C@@]21C :: 23.1
19. CCN(CC)CCOC(=O)c1cccc(OC)c1 :: 90.2
20. Cn1cc(C(=O)NC2CCCCCCC2)c(=O)c2cc(S(=O)(=O)N3CCCC3)ccc21 :: 90.9
21. COc1cc(C(=O)Nc2cc(C)ccn2)cc(OC)c1OC :: 97.5
22. CCCn1cnc2c(cnn2-c2ccc(F)cc2)c1=O :: 98.8
23. Cc1cccc(NC(=O)CC2NC3CCCCC3NC2=O)c1 (stereo not drawn) :: 93.6

* * *

# experiment: HUVEC growth inhibition – cell-based, human, primary screen (AID 575);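 note: 100% = median of untreated cell wells with 0.1% DMSO on each plate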
# test-settings: HUVEC proliferation, CellTiter-Glo luminescence, 72 h; at 10 µM; stronger effect = lower value
Label True when viability is strictly below 90%; at or above that, label False.

1) Cc1ccc(C2C(C#N)=C(N)Oc3cc4c(cc32)OCO4)cc1 (stereo unspecified) :: True
2) Cc1nnc(SCc2ccccc2F)n1NCc1cccs1 :: False
3) Cc1ccc(S(=O)(=O)N2CCN(C(=O)CSc3nnnn3C)C2)cc1 :: True
4) O=S(=O)(c1ccc(S(=O)(=O)N(Cc2ccco2)Cc2ccccc2Cl)cc1)N1CCCC1 :: True
5) CCSc1nc(O)c(C2OC(=O)c3c2ccc(OC)c3OC)c(=O)n1-c1ccccc1 (stereo unspecified) :: False

* * *

# experiment: reducers of endogenous Her2 protein level, primary screen, SKBR3 breast tumor cells, AlphaScreen, ATP viability (AID 461);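 for viability: percent of carrier control wells set as 100% viability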
# test-settings: 18-24 h, measured here: SKBR3 viability, ATP luminescence, at 10 µM
Property: viability; scope: individual molecules
metric: viability (%)

1) CC(C)C(C(=O)Nc1ccc2c(c1)OCO2)N1C(=O)c2ccccc2C1=O (stereo not given) :: 122
2) Cc1nnc(NC(=O)CSc2nnc(-c3ccc(S(=O)(=O)N4CCCC4)cc3)n2C)s1 :: 93
3) Cc1ccc(CNC(=O)C2CC(=O)OC23CCCC3)c(C)c1 (stereo not given) :: 86
4) O=C1NCC(COCc2ccccc2)O1 (stereo not given) :: 110
5) O=C(O)c1ccccc1C(=O)Nc1ccccc1 :: 121
6) CC[C@H]1OC(=O)C[C@@H](O)[C@H](C)[C@@H](O[C@@H]2O[C@H](C)C[C@H](N(C)C)[C@H]2O)[C@@H](CC=O)C[C@@H](C)C(=O)C=C[C@]2(C)O[C@H]2[C@@H]1C :: 162
7) Cc1ccc(S(=O)(=O)N2CCN(C(=O)CN3CCOCC3)C2C(C)C)cc1 (stereo not given) :: 99.5
8) Cc1cc(C)c2c(n1)nn1c(NCCCN3CCOCC3)cc(C)nc21 :: 106
9) CCc1cc2c(=O)c(-c3ccc4c(c3)OCCO4)coc2cc1OC(=O)c1ccco1 :: 72.5
10) CN(C(=O)c1ccncc1)C1CC(C)(C)N(O)C(C)(C)C1 :: 124

* * *

# experiment: 384-well plate pilot, post-Golgi transport modulator project, inhibition of yeast transport mutant growth (AID 636)
# test-settings: absorbance 615 nm, about 18 h, stronger effect = higher value
# key: entry, value: inhibition
metric: inhibition (%)

1) Nc1nc(CSc2nc3ccccc3[nH]2)nc(N2CCOCC2)n1 :: -0.13
2) CCOC(=O)CCC(=O)Nc1ccc(S(=O)(=O)N2CCCC2)cc1 :: -3.68
3) CCN1CCN(C(=O)N[C@@H](C(=O)N[C@@H]2C(=O)N3[C@@H]2SC(C)(C)[C@@H]3C(=O)O)c2ccccc2)C(=O)C1=O :: -0.39
4) CCN1CCCC1CNCc1ccc(Cl)cc1Cl (stereo unspecified) :: 0.95
5) COc1ccc(/C(O)=C2/C(=O)C(=O)N(Cc3cccnc3)C2c2ccncc2)cc1F (stereo unspecified) :: -6.62
6) CN(C)c1ccc(C=Nc2ccc(N(C)C)cc2)cc1 :: -6.22
7) O=C(c1ccc(S(=O)(=O)N2CCC(c3nc4ccccc4s3)CC2)cc1)N1CCOCC1 :: -5.34
8) CS(=O)(=O)NCC(c1cccnc1)N1CCN(c2ccc(F)cc2)CC1 (stereo unspecified) :: -1.89
9) COc1ccc2cc(C(c3nnnn3C(C)(C)C)N3CCc4ccccc4C3)c(=O)[nH]c2c1 (stereo unspecified) :: -5.33
10) COC(=O)C1C(=O)C2=C(CC1C)NC(=O)CC2c1ccccc1 (stereo unspecified) :: -3.55
11) C/C=C(/C(=C/C)c1ccc(O)cc1)c1ccc(O)cc1 :: 0.65

* * *

The entries below are paired with their reported viability.
# experiment: growth inhibitors of H69AR lung tumor, primary screen, human, duplicate replicates (AID 580);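 note: 100% = mean luminescence of untreated wells and 0% = no signal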
# test-settings: H69AR lung tumor cells viability, ATP luminescence, 72 h; at 10 µM; stronger effect = lower value
metric: viability (%)

1) Fc1cccc(Cl)c1Cn1nnc2c(NCc3ccccn3)ncnc21 :: 105
2) NS(=O)(=O)c1ccc(CCNC(=O)CCC2COc3ccccc3O2)cc1 (stereo not given) :: 95.8
3) Cc1cc(NC(=O)C2CCCC2)nc2c1c(=O)oc1ccccc12 :: 62.8
4) CCOC(=O)Nc1cc(OC)c(OC)cc1Cc1nccc2cc(OC)c(OC)cc12 :: 87.1
5) O=C(c1cccc(C(=O)N2CCN(c3ccc(F)cc3)CC2)c1)N1CCN(c2ccc(F)cc2)CC1 :: 73.4
6) CCn1c(SCC(=O)N2CCN(c3ccc(Cl)cc3)CC2)nc2ccccc2c1=O :: 78.6
7) O=c1[nH]c2cc3c(cc2cc1C(c1nnnn1Cc1ccccc1)N1CCCc2ccccc21)OCO3 (stereo not given) :: 61.6
8) CCC(C)NCC(O)COCc1ccc(Cl)cc1 (stereo not given) :: 99.7
9) CCCC1(C(=O)OC)NC(c2cc(OC)c(OC)c(OC)c2)C2C(=O)N(CC)C(=O)C21 (stereo not given) :: 88.9
10) C=CCc1ccccc1OCC(O)CNC(C)C (stereo not given) :: 91.3

* * *

# system-tested: Receptor tyrosine-protein kinase erbB-2 (Homo sapiens)
# experiment: reducers of endogenous Her2 protein level, primary screen, SKBR3 breast tumor cells, AlphaScreen, ATP viability (AID 461);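 for Her2 level: lower value means less Her2 protein in the cells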;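 for viability: percent of carrier control wells set as 100% viability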
# test-settings: 18-24 h, at 10 µM, stronger effect = lower value
Listed next: entries and their corresponding Her2 level.
metric: Her2 level (%)

1) FC(F)(F)C(F)(F)C(F)(F)c1nnc2ccc(N3CCOCC3)nn12 :: 118
2) COc1cc(C2C(C#N)=C(C)NC3=C2C(=O)CC(C)(C)C3)ccc1O (stereo not given) :: 84
3) CCOC(=O)N1CCC(NC(=O)C2CCCN2C(=O)OCc2ccccc2)CC1 (stereo not given) :: 106
4) C=CCn1c(COc2cccc(C)c2)nnc1SCC(=O)NC(=O)NCc1ccco1 :: 95
5) CC(=O)Nc1ccn(-c2ccccc2)n1 :: 105
6) COc1ccc(N2C(=O)C(Cl)=C(Nc3c(C)n(C)n(-c4ccccc4)c3=O)C2=O)cc1 :: 68
7) C=CCSc1nnc2n(-c3ccccc3OC)c(=O)c3c4c(sc3n12)CCC4 :: 100
8) Cc1nc2ccccc2c(=O)n1NC(=O)c1c(O)c2c(n(CC(C)C)c1=O)CCCC2 :: 73.5
9) O=C(NCC(c1cccnc1)N1CCN(c2ccc(F)cc2)CC1)OCc1ccccc1 (stereo not given) :: 66
10) CCOC(=O)c1ccc(NC(=O)CSc2nnc(COc3ccccc3)n2C)cc1 :: 113
